assay: The drug is tested on Blautia luti strain: DSM14534 for biotransformation. The drug concentrations were measured before and after a 12-h incubation by liquid-chromatography-coupled mass spectrometry (LC–MS); assay type: ADME; set-up: dose 2 uM, timepoint 0 vs 12 hours; conditions: 2 µM
assay readout: Bacterial Biotransformation

>>> result("O=C(CCCN1CCC2(CC1)C(=O)NCN2c1ccccc1)c1ccc(F)cc1")
"Compound NOT metabolized"
>>> result("COCCc1ccc(OCC(O)CNC(C)C)cc1.COCCc1ccc(OCC(O)CNC(C)C)cc1.O=C(O)C(O)C(O)C(=O)O (stereo not given) [METOPROLOL TARTRATE]")
"Compound NOT metabolized"
>>> result("Cc1ccc(-c2nc3ccc(C)cn3c2CC(=O)N(C)C)cc1")
"Compound NOT metabolized"
>>> result("COc1ccccc1N1CCN(CC(O)COc2cccc3ccccc23)CC1 (stereo not given)")
"Compound NOT metabolized"

Shifting focus to the compound that follows.
Which Bacterial Biotransformation reading was recorded for the compound Cc1cn([C@H]2C[C@H](N=[N+]=[N-])[C@@H](CO)O2)c(=O)[nH]c1=O ?
Compound NOT metabolized

###

details: akkermansia muciniphila, 12 h, 2 µM
Description: The drug is tested on Akkermansia muciniphila strain: ATCC BAA-835 for biotransformation. The drug concentrations were measured before and after a 12-h incubation by liquid-chromatography-coupled mass spectrometry (LC–MS)
assay readout: Bacterial Biotransformation

>>> result("COc1ccc2cc([C@H](C)C(=O)O)ccc2c1")
"Compound NOT metabolized"
>>> result("COC(=O)C(c1ccccc1)C1CCCCN1 (stereo not given) [METHYLPHENIDATE]")
"Compound NOT metabolized"
>>> result("OC(CCN1CCCCC1)(c1ccccc1)C1CC2C=CC1C2 (stereo not given)")
"Compound NOT metabolized"
>>> result("CCN1CCCC1CNC(=O)c1cc(S(N)(=O)=O)ccc1OC (stereo not given) [SULPIRIDE]")
"Compound NOT metabolized"

###

assay: The drug is tested on the gut metagenome community of MV10 with ENA study accession number: PRJEB31790 and ENA sample accession number: SAMEA5537491 for biotransformation. The drug concentrations were measured over 9 timepoints collected between 0 and 24 hours of incubation by liquid-chromatography-coupled mass spectrometry (LC–MS); type: ADME; parameters: dose 2 uM, timepoint 0, 1, 2, 4, 6, 8, 12, 18, 24 hours; details: 2 µM
assay readout: Bacterial Biotransformation

>>> result("C#C[C@]1(OC(C)=O)CC[C@H]2[C@@H]3CCC4=CC(=O)CC[C@@H]4[C@H]3CC[C@@]21C [NORETHINDRONE ACETATE]")
"Compound metabolized"
>>> result("CC(=O)OCC(CCn1cnc2cnc(N)nc21)COC(C)=O [FAMCICLOVIR]")
"Compound metabolized"
>>> result("C[C@@H]1C[C@H]2[C@@H]3CCC4=CC(=O)C=C[C@]4(C)[C@@]3(F)[C@@H](O)C[C@]2(C)[C@@]1(O)C(=O)CO [DEXAMETHASONE]")
"Compound metabolized"

###

experiment: The drug is tested on Ruminococcus lactaris strain: ATCC29176 for biotransformation. The drug concentrations were measured before and after a 12-h incubation by liquid-chromatography-coupled mass spectrometry (LC–MS); details: 2 µM
assay readout: Bacterial Biotransformation

Previously resolved entries follow.
>>> result("Cc1ccc(S(=O)(=O)NC(=O)NN2CC3CCCC3C2)cc1 (stereo not drawn) [GLICLAZIDE]")
"Compound NOT metabolized"
>>> result("COc1cc2nc(N3CCN(C(=O)c4ccco4)CC3)nc(N)c2cc1OC")
"Compound NOT metabolized"
>>> result("CC(C)C[C@H]1C(=O)N2CCC[C@H]2[C@]2(O)O[C@](NC(=O)[C@@H]3C=C4c5cccc6[nH]c(Br)c(c56)C[C@H]4N(C)C3)(C(C)C)C(=O)N12.CS(=O)(=O)O [BROMOCRIPTINE MESYLATE]")
"Compound metabolized"
>>> result("CC(C)N(CCC(C(N)=O)(c1ccccc1)c1ccccn1)C(C)C.O=P(O)(O)O (stereo not drawn) [DISOPYRAMIDE PHOSPHATE]")
"Compound NOT metabolized"
>>> result("CCS(=O)(=O)CCn1c([N+](=O)[O-])cnc1C")
"Compound metabolized"

Please go through the list and note Bacterial Biotransformation for each compound.
1. NC(CO)(CO)CO.O=C(c1ccccc1)c1ccc2n1CCC2C(=O)O (stereo not drawn)
2. Nc1ccc(/N=N/c2ccccc2)c(N)n1
3. CC(C(=O)O)c1ccc2c(c1)Cc1cccnc1O2 (stereo not drawn)

["Compound NOT metabolized", "Compound metabolized", "Compound NOT metabolized"]
